Would you mind telling me the reported inhibition at 10 µM of each entry?
# test.target: angiotensin II receptor (angiotensin II-induced vasoconstriction in in vitro aortic rings) (Oryctolagus cuniculus)
# Construct: thoracic aorta gently dissected free from the aortic root to the level of the diaphragm; from tissue; host or cells: rabbit (New Zealand white) thoracic aorta rings
# protocol.text: Inhibition of Angiotensin II Dose-Response in Rabbit Thoracic Aorta
# Assay type: cell-based, rabbit (New Zealand white)
# condition.notes: read-out: % Inhib. @ 10 uM
Write the value in % as a bare number.

stdin: Field request: inhibition at 10 µM | item: CCCCCCCc1nc(SCc2ccc(-c3ccccc3C(=O)O)cc2)nn1Cc1ccc(-c2ccccc2C(=O)O)cc1
stdout: 97

stdin: For CCCCCCc1nc(S(=O)(=O)Cc2ccc(-c3ccccc3C(=O)O)cc2)nn1Cc1ccc(-c2ccccc2C(=O)O)cc1 [Compound 40, hydrate] then?
stdout: 100

stdin: For CCCCCc1nc(SCc2ccc(-c3ccccc3C(=O)OC)cc2)n(Cc2ccc(-c3ccccc3C(=O)OC)cc2)n1 then?
stdout: 4

stdin: For CCCCCCc1nc(SCc2ccc(-c3ccccc3C(=O)OC)cc2)nn1Cc1ccc(-c2ccccc2C(=O)OC)cc1 then?
stdout: 100

stdin: For CCCCCCCc1nc(S(=O)(=O)Cc2ccc(-c3ccccc3C(=O)O)cc2)nn1Cc1ccc(-c2ccccc2C(=O)O)cc1 [Compound 39, hydrate] then?
stdout: 89

stdin: For CC(C)Cc1nc(SCc2ccc(-c3ccccc3C(=O)O)cc2)nn1Cc1ccc(-c2ccccc2C(=O)O)cc1 then?
stdout: 100

stdin: For CCCCCc1nc(SCc2ccc(-c3ccccc3C(=O)O)cc2)n(Cc2ccc(-c3ccccc3C(=O)O)cc2)n1 then?
stdout: 100

---

# test.target: angiotensin II receptor (angiotensin II-induced vasoconstriction in in vitro aortic rings) (Oryctolagus cuniculus)
# Construct: thoracic aorta gently dissected free from the aortic root to the level of the diaphragm; from tissue; host or cells: rabbit (New Zealand white) thoracic aorta rings
# Sequence (P34976 1-359): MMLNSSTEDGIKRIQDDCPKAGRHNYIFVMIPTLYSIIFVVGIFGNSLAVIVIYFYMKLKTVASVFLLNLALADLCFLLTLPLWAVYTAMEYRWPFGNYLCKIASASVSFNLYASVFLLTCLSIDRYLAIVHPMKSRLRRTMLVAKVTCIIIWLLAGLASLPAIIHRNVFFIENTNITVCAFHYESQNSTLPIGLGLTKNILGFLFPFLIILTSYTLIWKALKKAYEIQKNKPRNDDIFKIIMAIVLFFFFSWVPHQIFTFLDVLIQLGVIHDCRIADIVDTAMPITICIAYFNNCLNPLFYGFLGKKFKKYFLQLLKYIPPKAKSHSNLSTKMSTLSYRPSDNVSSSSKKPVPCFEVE
# protocol.text: Inhibition of Angiotensin II Dose-Response in Rabbit Thoracic Aorta
# Type: cell-based, rabbit (New Zealand white)
# condition.notes: rabbit thoracic aorta; negative logarithm of antagonist concentration causing 2-fold shift to the right of agonist potency; read-out: pA2 (converted)
Would you mind telling me the reported log10(Kb) of each entry?
Reminder: these figures are log10 of reported Kb, in µM before transformation.

stdin: Field request: log10(Kb) | item: CCCCCCCCc1nc(S(=O)(=O)Cc2ccc(-c3ccccc3C(=O)O)cc2)nn1Cc1ccc(-c2ccccc2C(=O)O)cc1 [Compound 38, hydrate]
stdout: -0.09

stdin: For CCCCCCCc1nc(SCc2ccc(-c3ccccc3C(=O)O)cc2)nn1Cc1ccc(-c2ccccc2C(=O)O)cc1 then?
stdout: -0.73

stdin: For CCCCCCc1nc(SCc2ccc(-c3ccccc3C(=O)OC)cc2)nn1Cc1ccc(-c2ccccc2C(=O)OC)cc1 then?
stdout: -1.96

stdin: For CCCCCCc1nc(S(=O)(=O)Cc2ccc(-c3ccccc3C(=O)O)cc2)nn1Cc1ccc(-c2ccccc2C(=O)O)cc1 [Compound 40, hydrate] then?
stdout: -2.05

stdin: For CC(C)Cc1nc(SCc2ccc(-c3ccccc3C(=O)O)cc2)nn1Cc1ccc(-c2ccccc2C(=O)O)cc1 then?
stdout: -1.49

stdin: For CCCCCCCc1nc(S(=O)(=O)Cc2ccc(-c3ccccc3C(=O)O)cc2)nn1Cc1ccc(-c2ccccc2C(=O)O)cc1 [Compound 39, hydrate] then?
stdout: -0.49

stdin: For CCCCCc1nc(SCc2ccc(-c3ccccc3C(=O)OC)cc2)nn1Cc1ccc(-c2ccccc2-c2nn[nH]n2)cc1 [Compound 16, hemihydrate] then?
stdout: 1.00

stdin: For CCCCc1nc(SCc2ccc(-c3ccccc3C(=O)O)cc2)nn1Cc1ccc(-c2ccccc2C(=O)O)cc1 then?
stdout: -2.49

---

# test.target: angiotensin II receptor (angiotensin II-induced vasoconstriction in in vitro aortic rings) (Oryctolagus cuniculus)
# Construct: thoracic aorta gently dissected free from the aortic root to the level of the diaphragm; from tissue; host or cells: rabbit (New Zealand white) thoracic aorta rings
# Sequence (P34976 1-359): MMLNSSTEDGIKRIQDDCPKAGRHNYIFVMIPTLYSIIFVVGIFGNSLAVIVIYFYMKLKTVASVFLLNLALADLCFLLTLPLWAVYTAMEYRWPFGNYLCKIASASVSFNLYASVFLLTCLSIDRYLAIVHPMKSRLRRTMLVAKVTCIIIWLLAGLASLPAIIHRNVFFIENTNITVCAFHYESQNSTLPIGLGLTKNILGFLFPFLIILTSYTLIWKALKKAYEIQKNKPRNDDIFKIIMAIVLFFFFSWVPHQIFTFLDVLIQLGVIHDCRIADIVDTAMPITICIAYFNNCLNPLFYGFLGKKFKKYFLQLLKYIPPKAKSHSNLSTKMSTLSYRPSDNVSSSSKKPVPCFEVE
# protocol.text: Inhibition of Angiotensin II Dose-Response in Rabbit Thoracic Aorta
# Assay type: cell-based, rabbit (New Zealand white)
# condition.notes: read-out: % Inhib. @ 10 uM
Would you mind telling me the reported inhibition at 10 µM of each entry?

stdin: Field request: inhibition at 10 µM | item: CCCCCCCCc1nc(S(=O)(=O)Cc2ccc(-c3ccccc3C(=O)O)cc2)nn1Cc1ccc(-c2ccccc2C(=O)O)cc1 [Compound 38, hydrate]
stdout: 87%

stdin: For CCCCCCCc1nc(SCc2ccc(-c3ccccc3C(=O)O)cc2)n(Cc2ccc(-c3ccccc3C(=O)O)cc2)n1 [Compound 26] then?
stdout: 48%

stdin: For CCCCCCCc1nc(SCc2ccc(-c3ccccc3C(=O)OC)cc2)nn1Cc1ccc(-c2ccccc2C(=O)OC)cc1 [Compound 9] then?
stdout: 2%

stdin: For CCCCc1nc(SCc2ccc(-c3ccccc3C(=O)O)cc2)nn1Cc1ccc(-c2ccccc2C(=O)O)cc1 [Compound 2] then?
stdout: 100%

stdin: For CCCCCCCc1nc(SCc2ccc(-c3ccccc3C(=O)OC)cc2)n(Cc2ccc(-c3ccccc3C(=O)OC)cc2)n1 [Compound 25] then?
stdout: 1%

stdin: For CCCCCc1nc(SCc2ccc(-c3ccccc3C(=O)O)cc2)nn1Cc1ccc(-c2ccccc2C(=O)O)cc1 [Compound 6] then?
stdout: 100%

stdin: For CCCCCc1nc(SCc2ccc(-c3ccccc3C#N)cc2)nn1Cc1ccc(-c2ccccc2C(=O)O)cc1 [Compound 12] then?
stdout: 79%
